Record form. Attribute: IC50. Fill in for each entry.
# Tested System: SMYD3 (Homo sapiens, UniProt Q9H7B4)
# Sequence (Q9H7B4 whole entry): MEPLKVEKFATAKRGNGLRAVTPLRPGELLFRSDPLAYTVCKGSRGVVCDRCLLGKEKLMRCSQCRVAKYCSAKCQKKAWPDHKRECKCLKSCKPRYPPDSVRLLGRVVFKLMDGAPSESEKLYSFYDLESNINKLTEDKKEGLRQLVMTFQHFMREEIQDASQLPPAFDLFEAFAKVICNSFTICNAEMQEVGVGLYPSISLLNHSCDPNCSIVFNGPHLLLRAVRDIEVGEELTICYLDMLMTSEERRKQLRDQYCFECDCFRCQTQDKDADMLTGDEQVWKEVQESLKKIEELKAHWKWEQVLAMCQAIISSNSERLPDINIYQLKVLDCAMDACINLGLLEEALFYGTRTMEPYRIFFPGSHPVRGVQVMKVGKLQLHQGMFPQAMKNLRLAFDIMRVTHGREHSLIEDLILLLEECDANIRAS
# Test Description: SMYD3 biochemical assay (MTase-Glo, MAP3K2 peptide substrate)
# Details: Table 3; MTase assay, MAP3K2 peptide substrate; read-out: IC50
Numbers only here, please. The scale is nM.

## Input Data request, read-out IC50, for CCCOC(=O)N1CCN(C(=O)c2ccc3c(Cl)cc(-c4ccc5[nH]nc(C)c5c4)nc3c2)CC1 [B176]
## Output 490

## Input Same question for CCCOC(=O)N1CCN(C(=O)c2ccc3c(Cl)cc(-c4ccc(N5CCOCC5)cc4)nc3c2)C[C@H]1C [B090] please.
## Output 77

## Input Lookup CCCOC(=O)N1CCN(C(=O)c2ccc3c(Cl)cc(-c4ccc5occc5c4)nc3c2)CC1 [B203]
## Output 460

## Input Same for CCCOC(=O)N1CCN(C(=O)c2ccc3c(Cl)c(CC)c(-c4ccccc4)nc3c2)CC1 [B004]
## Output 1400

## Input Same question for CCCOC(=O)N1CCN(C(=O)c2ccc3c(Cl)cc(-c4cnc5[nH]nc(C)c5c4)nc3c2)[C@@H](C)C1 [B200] please.
## Output 1030

## Input Also CCCOC(=O)N1CCN(C(=O)c2ccc3c(Cl)c(C)c(-c4cccc(F)c4F)nc3c2)CC1 [B030] ?
## Output 5800

## Input // same read-out, input: CCCOC(=O)N1CCN(C(=O)c2ccc3c(Cl)c4c(nc3c2)C(C)CCC4)CC1 (stereo not shown) [A118]
## Output 180

## Input Can you check CCCOC(=O)N1CCN(C(=O)c2ccc3c(Cl)cc(-c4cccc(CN(C)C)c4)nc3c2)C[C@H]1C [B111] next?
## Output 220

## Input Follow-up item: CCCOC(=O)N1CCN(C(=O)c2ccc3c(Cl)c(C)c(-c4ccccc4)nc3c2)[C@H](C)C1 [B017]
## Output 300

## Input Another compound to check: CCCOC(=O)N1CCN(C(=O)c2ccc3c(Cl)cc(-c4cnn(C)c4)nc3c2)C[C@H]1C [B215]
## Output 110

## Input What do we get for CCCOC(=O)N1CCN(C(=O)c2ccc3c(Cl)cc(-c4ccc(OC)cc4)nc3c2)CC1 [B046] ?
## Output 260

## Input // next record CCCOC(=O)N1CCN(C(=O)c2ccc3c(Cl)c4c(nc3c2)CC(c2cnn(C)c2)CC4)CC1 (stereo not shown) [A151]
## Output 46

## Input Now give it for CCCOC(=O)N1CCN(C(=O)c2ccc3c(Cl)cc(-c4ccc(C(=O)NC)c(F)c4)nc3c2)[C@@H](C)C1 [B240] too.
## Output 250

## Input Another compound to look at: CCCOC(=O)N1CCN(C(=O)c2ccc3c(Cl)cc(-c4cccc(C(N)=O)c4)nc3c2)C[C@H]1C [B053]
## Output 180

## Input Ok, now CCCOC(=O)N1CCN(C(=O)c2ccc3c(Cl)cc(-c4cnn(C5COC5)c4)nc3c2)CC1 [B271]
## Output 34

## Input Quick one: CCCOC(=O)N1CCN(C(=O)c2ccc3c(Cl)c(C)c(-c4ccc(C(N)=O)cc4)nc3c2)C[C@H]1C [B113]
## Output 92
